biological target: HiBit-KRAS^G12C (Homo sapiens, UniProt P01116, G12C); assay: HiBit degradation assay in MiaPaCa-2 HiBit-KRas^G12C cells; assay type: cell-based; conditions: MIA PaCa-2, read-out: KRas^G12C-HiBiT (MiaPaCa; 0.1% DMSO) DMax, MiaPaCa-2 HiBit-KRas^G12C cells; 0.1% DMSO; 24 hours; maximum degradation
Sequence (P01116 1-186 isoform P01116-2 G12C limits assumed): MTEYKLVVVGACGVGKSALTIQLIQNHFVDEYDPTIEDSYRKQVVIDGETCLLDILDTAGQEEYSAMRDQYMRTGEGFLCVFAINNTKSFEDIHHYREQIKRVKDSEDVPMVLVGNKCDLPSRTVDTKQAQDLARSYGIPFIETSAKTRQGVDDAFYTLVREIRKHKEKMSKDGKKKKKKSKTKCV
Consider the following compounds; for each one, report its Dmax.

C=CC(=O)N1CCN(c2nc(O[C@H](C)CN3CC(N4CCN(CC(=O)N[C@H](C(=O)N5C[C@H](O)C[C@H]5C(=O)N[C@@H](C)c5ccc(-c6scnc6C)cc5)C(C)(C)C)CC4)C3)nc3c(F)c(-c4cc(O)cc5ccccc45)c(Cl)cc23)CC1: < 35%
C=CC(=O)N1CCN(c2nc(O[C@H](C)CN3CCC(C4CCN(CC(=O)N[C@H](C(=O)N5C[C@H](O)C[C@H]5C(=O)N[C@@H](C)c5ccc(-c6scnc6C)cc5)C(C)(C)C)CC4)CC3)nc3c(F)c(-c4cc(O)cc5ccccc45)c(Cl)cc23)CC1: 35 to 70%
C=CC(=O)N1CCN(c2nc(O[C@H](C)CN3CC(OC4CCN(CC(=O)N[C@H](C(=O)N5C[C@H](O)C[C@H]5C(=O)N[C@@H](C)c5ccc(-c6scnc6C)cc5)C(C)(C)C)CC4)C3)nc3c(F)c(-c4cc(O)cc5ccccc45)c(Cl)cc23)CC1: < 35%

Now let's try a different one.
Query :: Record request: Dmax value, item C=CC(=O)N1CCN(c2nc(O[C@H](C)CN3CC(CN4CCN(CC(=O)N[C@H](C(=O)N5C[C@H](O)C[C@H]5C(=O)N[C@@H](C)c5ccc(-c6scnc6C)cc5)C(C)(C)C)CC4)C3)nc3c(F)c(-c4cc(O)cc5ccccc45)c(Cl)cc23)CC1
Result :: < 35%

====

target: HiBit-KRAS^G12C (Homo sapiens, UniProt P01116, G12C); assay: HiBit degradation assay in MiaPaCa-2 HiBit-KRas^G12C cells; type: cell-based; conditions: MIA PaCa-2, read-out: KRas^G12C-HiBiT (MiaPaCa; 0.1% DMSO) DMax, MiaPaCa-2 HiBit-KRas^G12C cells; 0.1% DMSO; 24 hours; maximum degradation
endpoint.name: Dmax

Examples from the recorded data:
C=CC(=O)N1CCN(c2nc(O[C@@H]3CCC[C@H]3N3CCC(COCC(=O)N[C@H](C(=O)N4C[C@H](O)C[C@H]4C(=O)N[C@@H](C)c4ccc(-c5scnc5C)cc4)C(C)(C)C)CC3)nc3c(F)c(-c4cc(O)cc5ccccc45)c(Cl)cc23)CC1 [Compound 13]: 35 to 70%
C=CC(=O)N1CCN(c2nc(O[C@H]3CCC[C@@H]3N3CCC(COCC(=O)N[C@H](C(=O)N4C[C@H](O)C[C@H]4C(=O)N[C@@H](C)c4ccc(-c5scnc5C)cc4)C(C)(C)C)CC3)nc3c(F)c(-c4cc(O)cc5ccccc45)c(Cl)cc23)CC1 [Compound 12]: < 35%
C=C(F)C(=O)N1CCN(c2nc(OCCN3CCC(COCC(=O)N[C@H](C(=O)N4C[C@H](O)C[C@H]4C(=O)N[C@@H](C)c4ccc(-c5scnc5C)cc4)C(C)(C)C)CC3)nc3c(F)c(-c4cc(O)cc5ccccc45)c(Cl)cc23)C[C@@H]1CC#N [Compound 15]: 35 to 70%

Give measured Dmax for every item shown.
1. C=CC(=O)N1CCN(c2nc(OCCN3CCC(COCC(=O)N[C@H](C(=O)N4C[C@@H](O)C[C@H]4C(=O)N[C@@H](C)c4ccc(-c5scnc5C)cc4)C(C)(C)C)CC3)nc3c(F)c(-c4cc(O)cc5ccccc45)c(Cl)cc23)C[C@@H]1CC#N [Compound 6]
2. C=CC(=O)N1CCN(c2nc(OCCN3CCC(OCCOc4cc([C@@H](C(=O)N5C[C@@H](O)C[C@H]5C(=O)N[C@@H](C)c5ccc(-c6scnc6C)cc5)C(C)C)on4)CC3)nc3c(F)c(-c4cc(O)cc5ccccc45)c(Cl)cc23)C[C@@H]1CC#N [Compound 5]
3. C=CC(=O)N1CCN(c2nc(O[C@H](C)CN3CCC(COCC(=O)N[C@H](C(=O)N4C[C@H](O)C[C@H]4C(=O)N[C@@H](C)c4ccc(-c5scnc5C)cc4)C(C)(C)C)CC3)nc3c(F)c(-c4cc(O)cc5cccc(C)c45)c(Cl)cc23)CC1 [Compound 11]
4. C=CC(=O)N1CCN(c2nc(OCCN3CCC(OCCOCC(=O)N[C@H](C(=O)N4C[C@@H](O)C[C@H]4C(=O)N[C@@H](C)c4ccc(-c5scnc5C)cc4)C(C)(C)C)CC3)nc3c(F)c(-c4cc(O)cc5ccccc45)c(Cl)cc23)C[C@@H]1CC#N [Compound 7]
5. C=CC(=O)N1CCN(c2nc(O[C@H](C)CN3CCN(C4CN(CC(=O)N[C@H](C(=O)N5C[C@H](O)C[C@H]5C(=O)N[C@@H](C)c5ccc(-c6scnc6C)cc5)C(C)(C)C)C4)CC3)nc3c(F)c(-c4cc(O)cc5ccccc45)c(Cl)cc23)CC1 [Compound 40]

Result ::
["35 to 70%", "< 35%", "35 to 70%", "35 to 70%", "< 35%"]

====

biological target: HiBit-KRAS^G12C (Homo sapiens, UniProt P01116, G12C); experiment: HiBit degradation assay in SW1573 HiBit-KRas^G12C cells; type: cell-based; set-up: expressed in transfected cells; host or cells: SW1573 (clone E6), modified pcDNA3.1 vector, TK promoter; details: SW1573, SW1573 HiBit-KRas^G12C, 0.5% DMSO, 24 hours; read-out: KRas^G12C-HiBiT (SW1573; 0.5% DMSO) Dmax**
endpoint.name: Dmax

Examples from the recorded data:
C=CC(=O)N1CCN(c2nc(O[C@@H]3CCC[C@H]3N3CCC(COCC(=O)N[C@H](C(=O)N4C[C@H](O)C[C@H]4C(=O)N[C@@H](C)c4ccc(-c5scnc5C)cc4)C(C)(C)C)CC3)nc3c(F)c(-c4cc(O)cc5ccccc45)c(Cl)cc23)C[C@@H]1CC#N: > 70%
C=CC(=O)N1CCN(c2nc(OCCN3CCC(C)(COc4cc([C@H](C(=O)N5C[C@H](O)C[C@H]5C(=O)N[C@@H](C)c5ccc(-c6scnc6C)cc5)C(C)C)on4)CC3)nc3c(F)c(-c4cc(O)cc5ccccc45)c(Cl)cc23)C[C@@H]1CC#N: > 70%
C=CC(=O)N1CCN(c2nc(OCCN3CCC(OCCOc4cc([C@H](C(=O)N5C[C@H](O)C[C@H]5C(=O)N[C@@H](C)c5ccc(-c6scnc6C)cc5)C(C)C)on4)CC3)nc3c(F)c(-c4cc(O)cc5ccccc45)c(Cl)cc23)C[C@@H]1CC#N (single isomer, unassigned): > 70%

Now let's try a different one.
Query :: Record request: Dmax value, item C=C(F)C(=O)N1CCN(c2nc(OCCN3CCC(C)(COc4cc([C@H](C(=O)N5C[C@H](O)C[C@H]5C(=O)N[C@@H](C)c5ccc(-c6ccnn6C)cc5)C(C)C)on4)CC3)nc3c(F)c(-c4cc(O)cc5ccccc45)c(Cl)cc23)C[C@@H]1CC#N (atropisomer, axis not shown)
Result :: 35 to 70%

====

biological target: HiBit-KRAS^G12C (Homo sapiens, UniProt P01116, G12C); assay: HiBit degradation assay in SW1573 HiBit-KRas^G12C cells; format: cell-based; design: expressed in transfected cells; host or cells: SW1573 (clone E6), modified pcDNA3.1 vector, TK promoter; conditions: SW1573 HiBit-KRas^G12C, 0.1% DMSO, 24 hours; read-out: KRas^G12C-HIBit (SW1573; 0.1% DMSO) DC50*
endpoint.name: DC50

C=CC(=O)N1CCN(c2nc(O[C@H](C)CN3CCN(CCOC4CCN(CC(=O)N[C@H](C(=O)N5C[C@H](O)C[C@H]5C(=O)N[C@@H](C)c5ccc(-c6scnc6C)cc5)C(C)(C)C)CC4)CC3)nc3c(F)c(-c4cc(O)cc5ccccc45)c(Cl)cc23)CC1: 0.1 to 1 µM
C=C(F)C(=O)N1CCN(c2nc(O[C@H](C)CN3CCC(COCC(=O)N[C@H](C(=O)N4C[C@H](O)C[C@H]4C(=O)N[C@@H](C)c4ccc(-c5scnc5C)cc4)C(C)(C)C)CC3)nc3c(F)c(-c4cc(O)cc5ccccc45)c(Cl)cc23)CC1: > 1 µM
C=CC(=O)N1CCN(c2nc(O[C@H](C)CN3CC(COCC(=O)N[C@H](C(=O)N4C[C@H](O)C[C@H]4C(=O)N[C@@H](C)c4ccc(-c5scnc5C)cc4)C(C)(C)C)C3)nc3c(F)c(-c4cc(O)cc5ccccc45)c(Cl)cc23)CC1: > 1 µM

Now let's try a different one.
Query :: Record request: DC50 value, item C=CC(=O)N1CCN(c2nc(OC[C@@H]3C[C@@H](OCCOCCOCCOCCOCCOCCOCCOCCOCC(=O)N[C@H](C(=O)N4C[C@H](O)C[C@H]4C(=O)N[C@@H](C)c4ccc(-c5scnc5C)cc4)C(C)(C)C)CN3C)nc3c2CCN(c2cccc4ccccc24)C3)C[C@@H]1CC#N
Result :: > 1 µM
